# TARGET_SYSTEM: T1, human IL-1RAcP on 293T/17-FR cells (human, UniProt Q9NPH3 21-570)
# T1 sequence (looked up): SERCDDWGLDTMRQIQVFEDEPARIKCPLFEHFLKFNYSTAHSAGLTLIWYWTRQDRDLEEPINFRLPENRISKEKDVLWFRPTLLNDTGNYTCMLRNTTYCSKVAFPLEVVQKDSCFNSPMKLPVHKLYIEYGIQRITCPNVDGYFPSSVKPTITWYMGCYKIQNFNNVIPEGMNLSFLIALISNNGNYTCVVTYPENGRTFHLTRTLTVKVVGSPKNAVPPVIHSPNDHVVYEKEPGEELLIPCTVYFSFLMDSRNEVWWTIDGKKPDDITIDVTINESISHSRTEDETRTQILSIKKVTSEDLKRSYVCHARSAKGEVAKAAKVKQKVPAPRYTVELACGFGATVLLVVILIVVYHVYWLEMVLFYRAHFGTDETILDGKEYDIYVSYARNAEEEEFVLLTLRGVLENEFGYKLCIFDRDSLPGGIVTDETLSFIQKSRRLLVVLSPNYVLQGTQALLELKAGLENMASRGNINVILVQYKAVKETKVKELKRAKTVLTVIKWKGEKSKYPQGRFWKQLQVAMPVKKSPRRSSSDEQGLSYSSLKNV
# TEST_DETAILS: cell-based or functional assay
The entries below are paired with their reported functional reporter gene assay (% inhibition), 0.04 µg/mL mAb.
METRIC_NAME: functional reporter gene assay (% inhibition), 0.04 µg/mL mAb (%)

[[record]]
binder = "P013.S.02.B.H04 (antibody, V domains shown, rabbit monoclonal antibody; also called P013.A.00029.F11) VH: QSVEESGGRLVKPDETLTLTCTVSGIDLSSYAMGWVRQAPGKGLEYIGIISSSGRTYYANWAKGRFTISKASSTTVDLKITSPTTEDTATYFCARLITVDYYIYDYFNLWGQGTLVTVSS VL: AYDMTQTPASVEAAVGGTVTIKCQASQSISSYLSWYQQKPGQPPKLLIYGASTLASGVPSRFKGSGSGTEYTLTISGVESDDAATYYCQQGYSYNNVDNTFGGGTEVVVK"
measurement_units = "%"
reported_value = 7

[[record]]
binder = "P013.S.02.B.C01 (antibody, V domains shown, rabbit monoclonal antibody; also called P013.A.00109.C12) VH: QSVEESGGRLVTPGGSLTLTCTVSGFSLSVYAMGWFRQAPGKGLEWIGDIYTGSGSTWYASWAKGRFTISKTSTTVDLKITSPTTEDTATYFCAREIDAGYVGYGFNLWGQGTLVTVSS VL: AQALTQTPSSVSAAVGGTVTINCQSSQSVYSDYLVWYQQKPGQPPKLLIYQASKLASGVPSRFKGSGSGTQFTLTISGVQSDDAATYYCQATYSSTGWYRAFGGGTEVVVK"
measurement_units = "%"
reported_value = 19

[[record]]
binder = "P013.S.02.B.G04 (antibody, V domains shown, rabbit monoclonal antibody; also called P013.A.00015.A11) VH: QSLEESGGRLVTPGTPLTLTCTVSGFSLSRCAMIWVRQAPGKGLEWIGFIGRGGSTWYASWVNGRFTISKTSTTVDLKITSPTTEDTATYFCARDGDYSDYYTFDLWGQGTLVTVSS VL: DVVMTQTPASVSERVGGTVTIKCQASQSIGSNLAWYQQKPGQPPKLLIYGASNLESGVPSRFSGSGSGTEFTLSISGVQSADAATYYCQCSGYDTTGVFPFGGGSEVVVK"
measurement_units = "%"
reported_value = -1

